- protocolDetails: Clearance study, liver microsomes (rats)
- conditionContext: rat, pH 7.4
microsomal CLint at 1 μM values for the compounds below.
Answer format: number, then unit.

// worked examples, microsomal CLint at 1 μM included
compound: O=C(NCc1cccs1)c1ccc2c(c1)N=C(c1ccc(Cl)s1)c1ccccc1S2 [drawing 1723]
endpointName: microsomal CLint at 1 μM
endpointValue: 97 µL/min/mg
//
compound: O=C(NN1CCCCC1)c1ccc2c(c1)N=C(c1ccc(Cl)cn1)c1ccccc1S2 [drawing 1786]
endpointName: microsomal CLint at 1 μM
endpointValue: 290 µL/min/mg
//
compound: O=C(NCCc1ccccc1)c1ccc2c(c1)N=C(c1ccc(F)cc1)c1ccccc1S2 [drawing 1773]
endpointName: microsomal CLint at 1 μM
endpointValue: 274 µL/min/mg
//
compound: O=C(NCc1cccs1)c1ccc2c(c1)N=C(c1ccc(F)cc1)c1ccccc1S2 [drawing 1659]
endpointName: microsomal CLint at 1 μM
endpointValue: 171 µL/min/mg
//
compound: Cc1ccc(CNC(=O)c2ccc3c(c2)N=C(c2ccc(F)cc2)c2ccccc2S3)o1 [drawing 1711]
endpointName: microsomal CLint at 1 μM
endpointValue: 258 µL/min/mg
//
compound: CCCCNC(=O)c1ccc2c(c1)N=C(c1ccc(Cl)s1)c1ccccc1S2 [drawing 1669]
endpointName: microsomal CLint at 1 μM
endpointValue: 80 µL/min/mg
//
compound: Cc1ccc(CNC(=O)c2ccc3c(c2)N=C(c2cccc(Cl)c2)c2ccccc2S3)o1 [drawing 1705]
endpointName: microsomal CLint at 1 μM
endpointValue: 147 µL/min/mg

Switching to the query record.
Memo: O=C(NC1CCCCC1)c1ccc2c(c1)N=C(c1ccc(Cl)cc1)c1ccccc1S2 [drawing 1712] , reported microsomal CLint at 1 μM: 43 µL/min/mg
